A collection of compounds and their measured hemolysis at 100 µM
# Test Summary: Toxicity in human erythrocytes assessed as hemolysis at 100 uM
# Assay type: cell-based, Erythrocyte
# Condition Parameters: read-out: Activity
Measured Endpoint: hemolysis at 100 µM (%)

- C[N+]1(CCOP(=O)([O-])OCCCCCCCCCCC=C2CCCCCCCCCCCCCC2)CCCCC1: 36
- C[N+]1(CCOP(=O)([O-])OCCCCCC2CCCCCCCCCCCCCC2)CCCCC1: 28.7
- C[N+](C)(C)[C@@H]1CCC[C@H]1OP(=O)([O-])OCCCCCCCCCCC=C1CCCCC1 (relative stereo): 66.4
- C[N+](C)(C)CCOP(=O)([O-])OCCCCCC1CCCCCCCCC1: 1.7
- C[N+](C)(C)[C@H]1CCCC[C@@H]1OP(=O)([O-])OCCCCC=C1CCCCCCCCCCCCCC1 (relative stereo): 60.7
- C[N+]1(C)C2CCC1CC(=CCOP(=O)([O-])OCCCCCCCCCCC=C1C3CC4CC(C3)CC1C4)C2: 82.3
- CCCCCCCCCCCCCCCCOP(=O)([O-])O[C@@H]1CCCC[C@H]1[N+](C)(C)C (relative stereo): 20.4
- C[N+]1(CCOP(=O)([O-])OCCCCCC2CCCCCCCCCCCCCC2)CCOCC1: 34.8
- C[N+](C)(C)[C@@H]1CCC[C@H]1OP(=O)([O-])OCCCCCCCCCCC=C1C2CC3CC(C2)CC1C3 (relative stereo): 30.8
- C[N+]1(CCOP(=O)([O-])OCCCCCCCCCCC=C2CCCCCCCCCCCCCC2)CCOCC1: 16.9
- C[N+](C)(C)CCOP(=O)([O-])OCCCCCC1CCCCCCCCCCCCCC1: 8.7
- C[N+](C)(C)CCOP(=O)([O-])OCCCCCCCCCCC=C1CCCCCCCCCCCCCC1: 17.7
- CCCCCCCCCCCCCCCCOP(=O)([O-])OCC[N+](C)(C)C [MILTEFOSINE]: 96.1
- C[N+]1(CCOP(=O)([O-])OCCCCC=C2CCCCCCCCCCCCCC2)CCCCC1: 71.6
- C[N+](C)(C)CCOP(=O)([O-])OCCCCCCCCCCC=C1CCCCCCCCC1: 25.5
- C[N+](C)(C)[C@@H]1CCCC[C@H]1OP(=O)([O-])OCCCCCCCCCCC=C1C2CC3CC(C2)CC1C3 (relative stereo): 66.8
- C[N+](C)(C)[C@@H]1CCCC[C@H]1OP(=O)([O-])OCCCCCCCCCCC=C1CCCCC1 (relative stereo): 81.6
- C[N+](C)(C)CCOP(=O)([O-])OCCCCC=C1CCCCCCCCC1: 2.1
- C[N+](C)(C)[C@H]1CCC[C@@H]1OP(=O)([O-])OCCCCC=C1CCCCCCCCCCCCCC1 (relative stereo): 80.5
- C[N+]1(CCOP(=O)([O-])OCCCCC=C2CCCCCCCCCCCCCC2)CCOCC1: 45.4
- C[N+](C)(C)CCOP(=O)([O-])OCCCCC=C1CCCCCCCCCCCCCC1: 38
- CCCCCCCCCCCCCCCCOP(=O)([O-])O[C@@H]1CCC[C@H]1[N+](C)(C)C (relative stereo): 100

* * *

# Test Summary: Toxicity in human erythrocytes assessed as hemolysis
# Type: cell-based, Erythrocyte
Measured Endpoint: HC50 (µM)

- C[N+](C)(C)[C@@H]1CCCC[C@H]1OP(=O)([O-])OCCCCCCCCCCC=C1C2CC3CC(C2)CC1C3 (relative stereo): 66.6
- C[N+](C)(C)[C@H]1CCC[C@@H]1OP(=O)([O-])OCCCCC=C1CCCCCCCCCCCCCC1 (relative stereo): 44.3
- C[N+](C)(C)[C@H]1CCCC[C@@H]1OP(=O)([O-])OCCCCC=C1CCCCCCCCCCCCCC1 (relative stereo): 76.7
- C[N+](C)(C)[C@@H]1CCCC[C@H]1OP(=O)([O-])OCCCCCCCCCCC=C1CCCCC1 (relative stereo): 59.8
- CCCCCCCCCCCCCCCCOP(=O)([O-])O[C@@H]1CCC[C@H]1[N+](C)(C)C (relative stereo): 43.1
- C[N+](C)(C)[C@@H]1CCC[C@H]1OP(=O)([O-])OCCCCCCCCCCC=C1CCCCC1 (relative stereo): 76.3
- C[N+]1(CCOP(=O)([O-])OCCCCC=C2CCCCCCCCCCCCCC2)CCCCC1: 68.4
- C[N+](C)(C)CC#CCOP(=O)([O-])OCCCCCCCCCCC=C1C2CC3CC(C2)CC1C3: 100

The measured values listed here are drawn from ChEMBL document CHEMBL1143864.
